# key: entry, value: Kd
molecular target: GppNHp KRAS G12D (Homo sapiens, UniProt P01116, G12D); test: SPR binding affinity to GppNHp KRAS G12D (Biacore S200); details: GppNHp-loaded KRAS G12D, steady state KD
Sequence (P01116 1-188 isoform P01116-2 G12D): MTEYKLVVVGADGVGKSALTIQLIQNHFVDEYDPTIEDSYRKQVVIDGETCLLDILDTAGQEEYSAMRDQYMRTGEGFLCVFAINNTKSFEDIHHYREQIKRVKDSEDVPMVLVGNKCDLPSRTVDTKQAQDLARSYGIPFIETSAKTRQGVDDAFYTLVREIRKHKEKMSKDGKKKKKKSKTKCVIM

Solved cases below.
# MOLECULE, SYSTEM NAME, RECORDED METRIC, EXPERIMENTAL VALUE
rows = [
    ("C[C@@H]1C[C@@H](Oc2nc(OC[C@@]34CCCN3C[C@H](F)C4)nc3c(F)c(-c4ccc(F)c5sc(N)nc45)c(C(F)(F)F)cc23)CN1 (atropisomer, axis not shown) [Compound 20]", "GppNHp KRAS G12D (Homo sapiens, UniProt P01116, G12D)", "Kd", "100 to 1000 nM"),
    ("C[C@H]1NCCC1Oc1nc(OC[C@@]23CCCN2C[C@H](F)C3)nc2c(F)c(-c3ccc(F)c4sc(N)nc34)c(C(F)(F)F)cc12 (stereo partly shown)", "GppNHp KRAS G12D (Homo sapiens, UniProt P01116, G12D)", "Kd", "100 to 1000 nM"),
]

# Kd of C[C@H]1C[C@@H](Oc2nc(OC[C@@]34CCCN3C[C@H](F)C4)nc3c(F)c(-c4ccc(F)c5sc(N)nc45)c(C(F)(F)F)cc23)CN1 = 1000 to 10000 nM

Value of measured Kd for the entry Nc1nc2c(-c3c(C(F)(F)F)cc4c(O[C@H]5CNC[C@@H]5F)nc(OC[C@@]56CCCN5C[C@H](F)C6)nc4c3F)ccc(F)c2s1 (atropisomer, axis not shown) [Compound 18] : > 10000 nM

get_value(item= Nc1nc2c(-c3c(C(F)(F)F)cc4c(OC5CC6CC[C@H](C5)N6)nc(OCC56CCCN5CCC6)nc4c3F)ccc(F)c2s1 (stereo partly shown) , readout=Kd) returns ≤ 100 nM

So, C[C@@H]1C[C@@H](Oc2nc(OC[C@@]34CCCN3C[C@H](F)C4)nc3c(F)c(-c4ccc(F)c5sc(N)nc45)c(C(F)(F)F)cc23)CN1 (atropisomer, axis not shown) [Compound 21] ? Its Kd was > 10000 nM

The recorded Kd for Nc1nc2c(-c3c(C(F)(F)F)cc4c(O[C@H]5CNC[C@@H]5F)nc(OC[C@@]56CCCN5C[C@H](F)C6)nc4c3F)ccc(F)c2s1 (atropisomer, axis not shown) [Compound 17] is 100 to 1000 nM

----------
# maps each entry to its pKd
biological target: GDP KRAS G12D (Homo sapiens, UniProt P01116, G12D); assay: SPR binding affinity to GDP KRAS G12D (Biacore S200); conditions: GDP-loaded KRAS G12D, steady state KD
pKd: −log10 of the molar value.

Sample records with pKd:
# COMPOUND, SYSTEM NAME, pKd
rows = [
    ("Nc1nc2c(-c3c(C(F)(F)F)cc4c(OC5CC6CC[C@H](C5)N6)nc(OCC56CCCN5CCC6)nc4c3F)ccc(F)c2s1 (stereo partly drawn)", "GDP KRAS G12D (Homo sapiens, UniProt P01116, G12D)", "≥ 7.00"),
    ("Nc1nc2c(-c3c(C(F)(F)F)cc4c(O[C@H]5CNC[C@@H]5F)nc(OC[C@@]56CCCN5C[C@H](F)C6)nc4c3F)ccc(F)c2s1 (atropisomer, axis not shown) [Compound 17]", "GDP KRAS G12D (Homo sapiens, UniProt P01116, G12D)", "≥ 7.00"),
]

// next entry
// sample C[C@H]1NCCC1Oc1nc(OC[C@@]23CCCN2C[C@H](F)C3)nc2c(F)c(-c3ccc(F)c4sc(N)nc34)c(C(F)(F)F)cc12 (stereo partly drawn) , its pKd was ≥ 7.00

----------
target: Avi-KRAS G12V (1-169) GppNHp/RAF1 RBD-3xFLAG (52-151) (Homo sapiens, UniProt P01116, G12V); construct: 50 nM Avi-KRAS G12V (1-169) GppNHp; assay: RAS-effector PPI HTRF disruption assay, Raf1-GppNHp-KRAS G12V; assay type: biochemical
Sequence (P01116 1-169 isoform P01116-2 G12V): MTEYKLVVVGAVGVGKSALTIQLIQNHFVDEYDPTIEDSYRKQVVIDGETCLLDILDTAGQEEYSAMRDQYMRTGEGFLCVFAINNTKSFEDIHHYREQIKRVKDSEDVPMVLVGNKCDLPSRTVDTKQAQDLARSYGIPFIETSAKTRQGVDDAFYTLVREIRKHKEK
Each item that follows carries a reported IC50.

# COMPOUND, SYSTEM NAME, IC50
rows = [
    ("Nc1nc2c(-c3c(C(F)(F)F)cc4c(O[C@H]5CCNC5)nc(OC[C@@]56CCCN5C[C@H](F)C6)nc4c3F)ccc(F)c2s1", "Avi-KRAS G12V (1-169) GppNHp/RAF1 RBD-3xFLAG (52-151) (Homo sapiens, UniProt P01116, G12V)", "1000 to 10000 nM"),
    ("C[C@H]1NCC[C@@H]1Oc1nc(OC[C@@]23CCCN2C[C@H](Cl)C3)nc2c(F)c(-c3ccc(F)c4sc(N)c(C#N)c34)c(C(F)(F)F)cc12", "Avi-KRAS G12V (1-169) GppNHp/RAF1 RBD-3xFLAG (52-151) (Homo sapiens, UniProt P01116, G12V)", "100 to 1000 nM"),
]

IC50 measured on Nc1nc2c(-c3c(C(F)(F)F)cc4c(O[C@H]5CN[C@H](CO)C5)nc(OCC56CCCN5C[C@H](F)C6)nc4c3F)ccc(F)c2s1 (stereo partly drawn) = > 10000 nM

----------
molecular target: Avi-KRAS G12V (1-169) GppNHp/RAF1 RBD-3xFLAG (52-151) (Homo sapiens, UniProt P01116, G12V); construct: 50 nM Avi-KRAS G12V (1-169) GppNHp; assay: RAS-effector PPI HTRF disruption assay, Raf1-GppNHp-KRAS G12V
pIC50: −log10 of the molar value.
Listed here are compounds together with their documented pIC50.

The value of pIC50 measured for the compound Nc1nc2c(-c3c(C(F)(F)F)cc4c(O[C@H]5CNCC5(F)F)nc(OC[C@@]56CCCN5C[C@H](F)C6)nc4c3F)ccc(F)c2s1 [Compound 28] turned out to be < 5.00

----------
The entries below are paired with their reported pIC50.
biological target: Avi-KRAS G12D/Q25A (1-169) GppNHp/3xFLAG-PI3KCA (157-299) (Homo sapiens, UniProt P01116, G12D/Q25A); construct: 375 nM Avi-KRAS G12D/Q25A (1-169) GppNHp; assay: RAS-effector PPI HTRF disruption assay, PI3KCA-GppNHp-KRAS G12D/Q25A; type: biochemical
Sequence (P01116 1-169 isoform P01116-2 G12D/Q25A): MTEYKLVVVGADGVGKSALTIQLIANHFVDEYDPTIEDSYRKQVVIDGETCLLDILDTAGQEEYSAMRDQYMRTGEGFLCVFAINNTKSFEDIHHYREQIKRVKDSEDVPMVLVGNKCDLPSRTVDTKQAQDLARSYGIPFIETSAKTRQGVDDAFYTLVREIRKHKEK
pIC50: −log10 of the molar value.

pIC50 measured on Nc1nc2c(-c3c(C(F)(F)F)cc4c(O[C@@H]5CCNC5)nc(OC[C@@]56CCCN5C[C@H](F)C6)nc4c3F)ccc(F)c2s1 (atropisomer, axis not shown) [Compound 4] = 6.00 to 7.00

Recorded result, Nc1nc2c(-c3c(C(F)(F)F)cc4c(O[C@H]5CNCC5(F)F)nc(OC[C@@]56CCCN5C[C@H](F)C6)nc4c3F)ccc(F)c2s1 [Compound 28] , pIC50: < 5.00

The recorded pIC50 for C[C@@H]1NCC[C@H]1Oc1nc(OC[C@@]23CCCN2C[C@H](F)C3)nc2c(F)c(-c3ccc(F)c4sc(N)nc34)c(C(F)(F)F)cc12 (atropisomer, axis not shown) [Compound 8] is 6.00 to 7.00

----------
biological target: GDP KRAS G12D (Homo sapiens, UniProt P01116, G12D); experiment: SPR binding affinity to GDP KRAS G12D (Biacore S200); conditions: GDP-loaded KRAS G12D, steady state KD
RECORDED METRIC: Kd

# COMPOUND, EXPERIMENTAL VALUE
rows = [
    ("Nc1nc2c(-c3c(C(F)(F)F)cc4c(O[C@H]5CNC[C@@H]5F)nc(OC[C@@]56CCCN5C[C@H](F)C6)nc4c3F)ccc(F)c2s1 (atropisomer, axis not shown) [Compound 18]", "100 to 1000 nM"),
    ("C[C@@H]1C[C@@H](Oc2nc(OC[C@@]34CCCN3C[C@H](F)C4)nc3c(F)c(-c4ccc(F)c5sc(N)nc45)c(C(F)(F)F)cc23)CN1 (atropisomer, axis not shown) [Compound 20]", "≤ 100 nM"),
]

// next entry
Lab book: Kd of C[C@@H]1C[C@@H](Oc2nc(OC[C@@]34CCCN3C[C@H](F)C4)nc3c(F)c(-c4ccc(F)c5sc(N)nc45)c(C(F)(F)F)cc23)CN1 (atropisomer, axis not shown) [Compound 21] noted as 1000 to 10000 nM

----------
biological target: Avi-KRAS G12D (1-169) GppNHp/RAF1 RBD-3xFLAG (52-151) (Homo sapiens, UniProt P01116, G12D); construct: 100 nM Avi-KRAS G12D (1-169) GppNHp; assay: RAS-effector PPI HTRF disruption assay, Raf1-GppNHp-KRAS G12D
Quick list: IC50 per entry.

// known answers, use as guide
# COMPOUND, IC50
rows = [
    ("C[C@H]1C[C@H](Oc2nc(OC[C@@]34CCCN3C[C@H](F)C4)nc3c(F)c(-c4ccc(F)c5sc(N)c(C#N)c45)c(Cl)cc23)CN1 [Compound 54]", "100 to 1000 nM"),
    ("Nc1nc2c(-c3c(C(F)(F)F)cc4c(O[C@H]5CCNC5)nc(OC[C@@]56CCCN5C[C@H](F)C6)nc4c3F)ccc(F)c2s1", "100 to 1000 nM"),
]

Per the record, COC[C@H]1C[C@@H](Oc2nc(OC[C@@]34CCCN3C[C@H](F)C4)nc3c(F)c(-c4ccc(F)c5sc(N)c(C#N)c45)c(C(F)(F)F)cc23)CN1 (atropisomer, axis not shown) [Compound 81] has IC50 of > 10000 nM

# compound C[C@H]1NCC[C@@H]1Oc1nc(OC[C@@]23CCCN2C[C@H](F)C3)nc2c(F)c(-c3ccc(F)c4sc(N)c(C#N)c34)c(Cl)cc12 ; its IC50 = 100 to 1000 nM

# IC50 of COC[C@H]1NCC[C@H]1Oc1nc(OC[C@@]23CCCN2C[C@H](F)C3)nc2c(F)c(-c3ccc(F)c4sc(N)c(C#N)c34)c(C(F)(F)F)cc12 = 100 to 1000 nM
